Molecular target: T1, RBM5 RRM1-ZnF1 F202A (human, UniProt P52756 94-210, F202A)
T1 sequence: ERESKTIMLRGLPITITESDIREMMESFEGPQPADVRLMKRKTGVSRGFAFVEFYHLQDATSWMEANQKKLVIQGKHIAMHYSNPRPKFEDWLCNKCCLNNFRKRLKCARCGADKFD
Assay: ITC; ITC: 20 mM MES pH 6.5, 100 mM NaCl, 2 mM BME, 25 C; NMR: 20 mM MES pH 6.5, 100 mM (single RRMs) or 400 mM (multidomain) NaCl, 1 mM DTT, 298 K
Conditions: protein: recombinant
pKd: −log10 of the molar value.

- Binder: "UGGCUCUUCUCU (ssRNA) [GGCU_12]"
  pKd: 6.42
